tested on: Grans; assay: Peptidases to distinguish leukemia from non-leukemia, granulocytes; format: cell-based, human; parameters: unit not given here; conditions: J22 12/2/91 AML
Measured enzyme activity accompanies every entry in the list below.
Give a plain numeric answer without units written out.

For orientation, consider the following solved cases.
COMPOUND	MEASUREMENT TYPE	RECORDED VALUE
C[C@H](N)C(=O)Nc1ccc2c(c1)Oc1cc(NC(=O)[C@H](C)N)ccc1C21OC(=O)c2ccccc21	enzyme activity	157.12
CC(C)[C@H](N)C(=O)N[C@@H](CO)C(=O)Nc1ccc2c(c1)Oc1cc(NC(=O)[C@H](CO)NC(=O)[C@@H](N)C(C)C)ccc1C21OC(=O)c2ccccc21 [VS, (H--L--Val--Ser)2 Rho 110-2TFA]	enzyme activity	0.22
NCC(=O)N1CCC[C@H]1C(=O)Nc1ccc2c(c1)Oc1cc(NC(=O)[C@@H]3CCCN3C(=O)CN)ccc1C21OC(=O)c2ccccc21	enzyme activity	13.98

Report enzyme activity for NC(=O)CC[C@H](N)C(=O)N[C@@H](CO)C(=O)Nc1ccc2c(c1)Oc1cc(NC(=O)[C@H](CO)NC(=O)[C@@H](N)CCC(N)=O)ccc1C21OC(=O)c2ccccc21 [QS, (H--L--Gln--Ser)2 Rho 110-2TFA] tested on Grans.
0.10

Query for Grans: what enzyme activity does the record show for NCCCC[C@H](N)C(=O)Nc1ccc2c(c1)Oc1cc(NC(=O)[C@@H](N)CCCCN)ccc1C21OC(=O)c2ccccc21 [LYS, (H--L--Lys)2 Rho 110-4TFA] ?
1.41

Lab note: need enzyme activity for NCC(=O)Nc1ccc2c(c1)Oc1cc(NC(=O)CN)ccc1C21OC(=O)c2ccccc21 on Grans, anyone have it?
34.02

Kindly state the measured enzyme activity obtained for CC(C)C[C@H](N)C(=O)NCC(=O)Nc1ccc2c(c1)Oc1cc(NC(=O)CNC(=O)[C@@H](N)CC(C)C)ccc1C21OC(=O)c2ccccc21 with Grans.
1.56

Give Grans enzyme activity for O=C1OC2(c3ccc(NC(=O)[C@@H]4CCCN4)cc3Oc3cc(NC(=O)[C@@H]4CCCN4)ccc32)c2ccccc21 [PRO, (H--L--Pro)2 Rho 110-2TFA]
4.03

Please provide the recorded enzyme activity for C[C@@H](O)[C@H](N)C(=O)N1CCC[C@H]1C(=O)Nc1ccc2c(c1)Oc1cc(NC(=O)[C@@H]3CCCN3C(=O)[C@@H](N)[C@@H](C)O)ccc1C21OC(=O)c2ccccc21 , tested on Grans.
2.33

====

test system: Grans; test: Peptidases to distinguish leukemia from non-leukemia, granulocytes; format: cell-based, human; design: unit not given here; conditions: N193 normal
enzyme activity for assorted compounds
// return just the number, without any unit appended

# annotated cases, reported enzyme activity shown
COMPOUND	enzyme activity
NCC(=O)Nc1ccc2c(c1)Oc1cc(NC(=O)CN)ccc1C21OC(=O)c2ccccc21 [GLY, (Gly)2 Rho 110]	63.33
C[C@@H](O)[C@H](N)C(=O)N1CCC[C@H]1C(=O)Nc1ccc2c(c1)Oc1cc(NC(=O)[C@@H]3CCCN3C(=O)[C@@H](N)[C@@H](C)O)ccc1C21OC(=O)c2ccccc21 [TP]	4.96
NCC(=O)N1CCC[C@H]1C(=O)Nc1ccc2c(c1)Oc1cc(NC(=O)[C@@H]3CCCN3C(=O)CN)ccc1C21OC(=O)c2ccccc21 [GP]	8.87
CC(C)[C@H](N)C(=O)N[C@@H](CO)C(=O)Nc1ccc2c(c1)Oc1cc(NC(=O)[C@H](CO)NC(=O)[C@@H](N)C(C)C)ccc1C21OC(=O)c2ccccc21 [VS, (H--L--Val--Ser)2 Rho 110-2TFA]	0.44
CC(C)C[C@H](N)C(=O)NCC(=O)Nc1ccc2c(c1)Oc1cc(NC(=O)CNC(=O)[C@@H](N)CC(C)C)ccc1C21OC(=O)c2ccccc21 [LG]	3.65

Value wanted: enzyme activity (Grans) of entry C[C@H](N)C(=O)Nc1ccc2c(c1)Oc1cc(NC(=O)[C@H](C)N)ccc1C21OC(=O)c2ccccc21 [ALA, (Ala)2 Rho 110]
178.64

Quick check: enzyme activity on Grans, item NCCCC[C@H](N)C(=O)Nc1ccc2c(c1)Oc1cc(NC(=O)[C@@H](N)CCCCN)ccc1C21OC(=O)c2ccccc21 [LYS, (H--L--Lys)2 Rho 110-4TFA] ?
1.43

Quick check: enzyme activity on Grans, item NC(=O)CC[C@H](N)C(=O)N[C@@H](CO)C(=O)Nc1ccc2c(c1)Oc1cc(NC(=O)[C@H](CO)NC(=O)[C@@H](N)CCC(N)=O)ccc1C21OC(=O)c2ccccc21 [QS, (H--L--Gln--Ser)2 Rho 110-2TFA] ?
0.14

Form field: enzyme activity recorded for O=C1OC2(c3ccc(NC(=O)[C@@H]4CCCN4)cc3Oc3cc(NC(=O)[C@@H]4CCCN4)ccc32)c2ccccc21 [PRO, (H--L--Pro)2 Rho 110-2TFA] with Grans (enter value)
4.75
